Target Of Assay: T1, B3GNT2 (Homo sapiens, UniProt Q9NY97)
T1 construct: The respective ORFs of candidate genes [CD274 (NM_014143), MCL1 (NM_021960), JUNB (NM_002229), and B3GNT2 (NM_006577)] were synthesized; expressed in transfected cells; host or cells: A375 melanoma cells (lentiviral ORF overexpression)
T1 sequence (Q9NY97 1-397): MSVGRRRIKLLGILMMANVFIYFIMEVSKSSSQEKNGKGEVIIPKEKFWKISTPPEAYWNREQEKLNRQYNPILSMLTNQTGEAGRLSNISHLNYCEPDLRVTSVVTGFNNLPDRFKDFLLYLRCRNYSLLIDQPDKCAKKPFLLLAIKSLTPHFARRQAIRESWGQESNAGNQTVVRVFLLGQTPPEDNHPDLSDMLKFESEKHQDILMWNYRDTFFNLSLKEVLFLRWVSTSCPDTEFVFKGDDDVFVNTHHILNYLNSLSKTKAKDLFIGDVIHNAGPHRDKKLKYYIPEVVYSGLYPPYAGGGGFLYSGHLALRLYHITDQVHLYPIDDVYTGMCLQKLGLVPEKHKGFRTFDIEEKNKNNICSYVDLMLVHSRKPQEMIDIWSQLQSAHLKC
Assay Remarks: Co-IP of FLAG-tagged B3GNT2 followed by mass spectrometry
Assay type: cell-based
Run Parameters: Co-IP with IgG control antibody, N-terminally FLAG-tagged B3GNT2; mass spectrometry count, unit not given
Observed Property: N-term IgG
Note: the reply should be a number with no unit written.

So what does the record say about N-term IgG for PGAM5 (protein) MAFRQALQLAACGLAGGSAAVLFSAVAVGKPRAGGDAEPRPAEPPAWAGGARPGPGVWDPNWDRREPLSLINVRKRNVESGEEELASKLDHYKAKATRHIFLIRHSQYHVDGSLEKDRTLTPLGREQAELTGLRLASLGLKFNKIVHSSMTRAIETTDIISRHLPGVCKVSTDLLREGAPIEPDPPVSHWKPEAVQYYEDGARIEAAFRNYIHRADARQEEDSYEIFICHANVIRYIVCRALQFPPEGWLRLSLNNGSITHLVIRPNGRVALRTLGDTGFMPPDKITRS ?
0

Follow-up entry: SLC25A10 (protein) MAAEARVSRWYFGGLASCGAACCTHPLDLLKVHLQTQQEVKLRMTGMALRVVRTDGILALYSGLSASLCRQMTYSLTRFAIYETVRDRVAKGSQGPLPFHEKVLLGSVSGLAGGFVGTPADLVNVRMQNDVKLPQGQRRNYAHALDGLYRVAREEGLRRLFSGATMASSRGALVTVGQLSCYDQAKQLVLSTGYLSDNIFTHFVASFIAAAGDEPPPQGGCATFLCQPLDVLKTRLMNSKGEYQGVFHCAVETAKLGPLAFYKGLVPAGIRLIPHTVLTFVFLEQLRKNFGIKVPS
0
